# credit: ChEMBL document CHEMBL4627349

# experiment description: Cytotoxicity against mouse C3H10T1/2 cells assessed as effect on cell viability at 10 uM relative to control
# Format: cell-based, C3H 10T1/2
# condition parameters: read-out: Activity
measurement label: viability at 10 µM

[in] Fill blank: measured viability at 10 µM of the compound CS(=O)(=O)C1CC2c3c(c4ccccc4n3CC#N)CC1N2Cc1ccccc1 (configuration not stated) is ____.
[out] < 20%

With those in mind, consider the next compound.
[in] Fill blank: measured viability at 10 µM of the compound CS(=O)(=O)C1CC2c3c(c4ccccc4n3S(C)(=O)=O)CC1N2Cc1ccccc1 (configuration not stated) is ____.
[out] < 20%
